- protocol notes: chemical genetic growth profiling, strain panel (AID 1159580);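 also: tested at 20 µM; growth read once vehicle control cultures reached saturation at 30 °C; 1 = growth at the plate median or of vehicle wells; lower values mean less growth of the strain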
- experimental context: S. cerevisiae deletion strains, growth OD, locus YKL193C, strain SDS22
Hit rate of the full screen: of about 5,500 compounds, about 2,000 (36%) were called active. Another 18% or so got no clear call; they are omitted. Rule as the data show it: active = normalized growth mostly below about 0.91 (no sharp cut-off); inconclusive = no clear call, values can overlap the other calls; inactive = mostly above about 0.92. Some of the results follow.
// allowed return values: active, inactive

Field: example entries. Status: answers known.
{"compound": "CC1(C)c2ccccc2N(CCC(N)=O)C12C=Cc1c(ccc3ccccc13)O2 (configuration not stated)", "assigned class": "inactive"}
{"compound": "N#Cc1ccc(NC(=O)Nc2cccc3ccccc23)cc1", "assigned class": "inactive"}
{"compound": "O=C(NNc1ccc(Cl)cc1)c1ccc(F)cc1F", "assigned class": "inactive"}
{"compound": "O=[N+]([O-])c1ccc(-c2csc(Nc3ccncc3)n2)cc1", "assigned class": "inactive"}
{"compound": "O=C(Nc1ccc(F)c(Cl)c1)c1ccccc1O", "assigned class": "active"}
{"compound": "CS(=O)(=O)/C(C#N)=C/c1ccccc1OCc1c(Cl)cccc1Cl", "assigned class": "inactive"}
{"compound": "COc1ccc(OC)c(-c2ccn[nH]2)c1OCc1ccccc1", "assigned class": "inactive"}
{"compound": "CNC(=O)n1nc(C)c(Cc2csc3ccc(Cl)cc23)c1C", "assigned class": "inactive"}
{"compound": "O=C1/C(=C/c2cccs2)COc2ccccc21", "assigned class": "inactive"}
{"compound": "Oc1ccc(N=Nc2ccccn2)c(O)c1", "assigned class": "active"}

input: Which outcome was entered for the compound Cc1onc(-c2ccccc2)c1C(=O)Sc1ccc(C(F)(F)F)cn1 in this test?
output: inactive

input: What do you get for O=C1/C(=C/c2ccc(C(F)(F)F)cc2)COc2ccccc21 ?
output: inactive

---

- protocol notes: chemical genetic growth profiling, strain panel (AID 1159580);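 also: tested at 20 µM; growth read once vehicle control cultures reached saturation at 30 °C; 1 = growth at the plate median or of vehicle wells; lower values mean less growth of the strain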
- experimental context: S. cerevisiae deletion strains, growth OD, locus YLR262C, strain YPT6
The whole screen tested about 5,500 compounds, of which about 2,000 (36%) were called active. About 18% were inconclusive and are not listed. Rule as the data show it: active = normalized growth mostly below about 0.91 (no sharp cut-off); inconclusive = no clear call, values can overlap the other calls; inactive = mostly above about 0.92. The list shows a part of the results.
// allowed return values: YES = active, NO = inactive

Field: example entries. Status: answers known.
{"compound": "O=C(O)Cc1ccccc1I", "assigned class": "NO"}
{"compound": "OC1(c2ccc(Cl)cc2)CSc2nc3cc(C(F)(F)F)ccc3n21 (stereo not drawn)", "assigned class": "NO"}

input: Which outcome was entered for the compound NNCCc1ccccc1 in this test?
output: NO

input: What do you get for COc1ccc(C(=O)N2CCCC2=O)cc1 ?
output: NO

input: What do you get for NS(=O)(=O)c1cc2c(cc1Cl)NC(C1CC3C=CC1C3)NS2(=O)=O (stereo not drawn) ?
output: NO

---

- protocol notes: chemical genetic growth profiling, strain panel (AID 1159580);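 also: tested at 20 µM; growth read once vehicle control cultures reached saturation at 30 °C; 1 = growth at the plate median or of vehicle wells; lower values mean less growth of the strain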
- experimental context: S. cerevisiae deletion strains, growth OD, locus YHR129C, strain ARP1, hits give low values
In all, about 5,500 compounds went through this assay and about 2,000 (36%) were called active. Another 18% or so got no clear call; they are omitted. The list shows a part of the results. Where a SMILES comes first, the peptide text is derived from it.
result type: normalized growth
One number for each entry.

{"molecule": "NCCCCC(N)C(=O)NC(Cc1ccc(O)cc1)C(=O)NC(CCCCN)C(=O)O (stereo not drawn) (H-Lys-Tyr-Lys-OH; configuration not given here)", "val": 1.01}
{"molecule": "NS(=O)(=O)c1cc2c(cc1Cl)NC(C1CC3C=CC1C3)NS2(=O)=O (centres undefined)", "val": 0.994}
{"molecule": "Cc1cc(C)cc(OCC2CNC(=O)O2)c1 (centres undefined)", "val": 1.02}

input: // normalized growth lookup, key: NC(N)=NCCCC(NC(=O)C(N)Cc1ccc(O)cc1)C(=O)O (centres undefined)
output: 0.99
